# EXPERIMENT_SUMMARY: Stability in Mouse Plasma
# Format: in vitro ADME
# TEST_CONTEXT: pooled mouse plasma, 37° C., peptides 100 DM, 30 min
Non-standard residues stand in square brackets, D forms with d. Residues, ends and D or L forms follow the SMILES beside them.
PROPERTY_LABEL: remaining at 0.5 h, 100 DM (%)
I only need the number, in %, no unit after it.

Problem: Which remaining at 0.5 h, 100 DM value is on record for CC[C@H](C)[C@H](NC(=O)[C@@H](C)NC(=O)[C@H](CO)NC(=O)CNC(=O)[C@@H]1CCCN1C(=O)[C@H](CC(C)C)NC(=O)[C@@H](N)CCCNC(=N)N)C(=O)N[C@@H](CC(C)C)C(=O)N[C@H](C(=O)N[C@@H](CC(N)=O)C(=O)N1CCC[C@H]1C(=O)N[C@H](C(=O)N[C@@H](CC(C)C)C(=O)NCC(=O)N[C@@H](Cc1c[nH]c2ccccc12)C(=O)N[C@H](C(=O)O)C(C)C)C(C)C)[C@@H](C)O [compound 10] (H-RLPGS[dA]ILTNPVLGWV-OH) ?
Result: 58.1
